Tested on: soybean
procedureSummary: Test C postemergence
Assay type: in vivo, Glycine max
runParameters: Postemergence, 62 g ai/ha; scale 0 to 100 (0 no effect, 100 complete control)
endpointName: Plant response rating, Soybean
Lab note: jot the number down without any unit.

Solved cases (5 shown):
smiles: CCCOc1cnn(-c2c(C#N)cccc2Oc2ncc(Cl)cn2)c1
Plant response rating, Soybean: 65
//
smiles: FCc1cccc(Oc2ncc(Br)cn2)c1-n1cc(C(F)(F)F)cn1
Plant response rating, Soybean: 30
//
smiles: Cc1cnc(Oc2cccc(C#N)c2-n2cc(I)cn2)nc1
Plant response rating, Soybean: 75
//
smiles: N#Cc1cccc(Oc2ncc(F)cn2)c1-n1cc(Cl)cn1
Plant response rating, Soybean: 70
//
smiles: CCOc1cnn(-c2c(C#N)cccc2Oc2ncc(Cl)cn2)c1
Plant response rating, Soybean: 90

# input Please provide the recorded Plant response rating, Soybean for CCOc1cnn(-c2c(C#N)cccc2Oc2ncc(F)cn2)c1 , tested on soybean.
# output 90

# input Please provide the recorded Plant response rating, Soybean for N#Cc1cccc(Oc2ncc(Cl)cn2)c1-n1cnc(Br)c1 , tested on soybean.
# output 65

# input Please provide the recorded Plant response rating, Soybean for FCc1cn(-c2c(F)cccc2Oc2ncc(Cl)cn2)nn1 , tested on soybean.
# output 65

# input Please provide the recorded Plant response rating, Soybean for FCc1cccc(Oc2ncc(Cl)cn2)c1-n1cc(Br)cn1 , tested on soybean.
# output 70
